These entries and their values trace back to patent US12102705B2.

Target: human muscarinic receptor M3 (Homo sapiens)
Construct: expressed in transfected cells; cultured in Ham's F-12 medium
Test: Time-dependent inhibition of M3 activity, Fluo-4 NW calcium fluorescence
Format: cell-based
Details: 25 min; peptide 50 μM, 25 minutes (direct effect); read-out: % Inhibition hM3 receptor activity
Peptide text beside a SMILES is read from it. * marks the point of attachment. Palmitoyl = CCCCCCCCCCCCCCCC(=O)*; Myristoyl = CCCCCCCCCCCCCC(=O)*
Measured inhibition at 50 µM by item
Report only the number, with the unit % understood.

Answered cases to consult:
INSERT INTO results (compound, value_reported) VALUES
  ('CCCCCCCCCCCCCC(=O)N[C@@H](CCCNC(=N)N)C(=O)N[C@H](C(=O)N[C@@H](CCSC)C(=O)N[C@@H](Cc1ccccc1)C(=O)N[C@@H](CCCCN)C(=O)N[C@@H](CCSC)C(=O)N[C@@H](Cc1ccccc1)C(=O)N[C@@H](CCCCN)C(=O)N[C@@H](CCCNC(=N)N)C(=O)N[C@@H](CC(=O)O)C(=O)N[C@@H](Cc1ccc(O)cc1)C(N)=O)C(C)C [Seq. ID No. 8 Myristoyl] (Myristoyl-RVMFKMFKRDY-NH2)', 6.1),
  ('CCCCCCCCCCCCCC(=O)N[C@@H](CCCNC(=N)N)C(=O)N[C@H](C(=O)N[C@@H](CCSC)C(=O)N[C@@H](Cc1ccc(O)cc1)C(=O)N[C@@H](CCCCN)C(=O)N[C@@H](CCSC)C(=O)N[C@@H](CC(N)=O)C(=O)N[C@@H](CCCCN)C(=O)N[C@@H](CCCNC(=N)N)C(=O)N[C@@H](CC(=O)O)C(=O)N[C@@H](Cc1ccc(O)cc1)C(N)=O)C(C)C [Seq. ID No. 7 Myristoyl] (Myristoyl-RVMYKMNKRDY-NH2)', 16.4);

Now consider the entry below.
Could you tell me which inhibition at 50 µM is on file for CCCCCCCCCCCCCCCC(=O)N[C@@H](Cc1c[nH]c2ccccc12)C(=O)N[C@@H](CCSC)C(=O)N[C@@H](CC(N)=O)C(=O)N[C@@H](CC(C)C)C(=O)N[C@@H](CCCCN)C(=O)N[C@H](C(N)=O)[C@@H](C)O [Seq. ID No. 4 Palmitoyl] (Palmitoyl-WMNLKT-NH2) ?
11.5

###

Target: human muscarinic receptor M3 (Homo sapiens, UniProt P20309)
Construct: expressed in transfected cells; cultured in Ham's F-12 medium
Sequence (P20309 whole entry): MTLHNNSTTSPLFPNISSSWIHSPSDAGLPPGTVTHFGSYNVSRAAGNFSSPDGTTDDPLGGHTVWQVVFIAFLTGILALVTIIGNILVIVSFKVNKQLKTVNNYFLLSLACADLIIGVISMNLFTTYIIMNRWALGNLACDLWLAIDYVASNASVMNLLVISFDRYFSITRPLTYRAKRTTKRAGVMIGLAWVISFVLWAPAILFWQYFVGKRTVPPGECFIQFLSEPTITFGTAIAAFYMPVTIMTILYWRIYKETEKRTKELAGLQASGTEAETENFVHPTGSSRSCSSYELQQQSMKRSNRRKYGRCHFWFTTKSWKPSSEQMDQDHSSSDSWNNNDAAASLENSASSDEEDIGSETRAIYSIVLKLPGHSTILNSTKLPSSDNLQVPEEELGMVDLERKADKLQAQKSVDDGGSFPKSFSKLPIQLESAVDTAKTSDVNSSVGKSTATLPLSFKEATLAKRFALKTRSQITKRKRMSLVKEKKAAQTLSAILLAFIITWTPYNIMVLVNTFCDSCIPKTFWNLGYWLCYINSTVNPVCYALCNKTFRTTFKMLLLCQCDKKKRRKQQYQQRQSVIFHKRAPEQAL
Experiment: Time-dependent inhibition of M3 activity, Fluo-4 NW calcium fluorescence
Type: cell-based
Conditions: 25 min; peptide 50 μM, 25 minutes (direct effect); read-out: % Inhibition hM3 receptor activity
Peptide text beside a SMILES is read from it. * marks the point of attachment. Palmitoyl = CCCCCCCCCCCCCCCC(=O)*; Myristoyl = CCCCCCCCCCCCCC(=O)*
quantity: inhibition at 50 µM
The answer should read as a number with its unit following.

Answered cases to consult:
INSERT INTO results (molecule, value_reported) VALUES
  ('CCCCCCCCCCCCCCCC(=O)N[C@@H](Cc1c[nH]c2ccccc12)C(=O)N[C@@H](CCSC)C(=O)N[C@@H](CCCNC(=N)N)C(=O)N[C@@H](CC(C)C)C(=O)N[C@@H](CCCCN)C(=O)N[C@@H](C)C(N)=O [Seq. ID No. 3 Palmitoyl] (Palmitoyl-WMRLKA-NH2)', '16.4%'),
  ('CCCCCCCCCCCCCCCC(=O)N[C@@H](Cc1c[nH]c2ccccc12)C(=O)N[C@@H](CCSC)C(=O)N[C@@H](CCCNC(=N)N)C(=O)N[C@@H](CC(C)C)C(N)=O [Seq. ID No. 1 Palmitoyl] (Palmitoyl-WMRL-NH2)', '25.1%');

Could you tell me which inhibition at 50 µM is on file for CCCCCCCCCCCCCC(=O)N[C@@H](CCCNC(=N)N)C(=O)N[C@@H](CCSC)C(=O)N[C@@H](Cc1ccc(O)cc1)C(=O)N[C@@H](CCCCN)C(=O)N[C@@H](CCSC)C(=O)N[C@@H](CCSC)C(=O)N[C@@H](C)C(=O)NCC(=O)N[C@@H](CCSC)C(=O)N[C@@H](Cc1ccc(O)cc1)C(=O)N[C@@H](CC(C)C)C(=O)N[C@@H](CCCNC(=N)N)C(N)=O [Seq. ID No. 6 Myristoyl] (Myristoyl-RMYKMMAGMYLR-NH2) ?
-20.2%

###

Target: human muscarinic receptor M3 (Homo sapiens, UniProt P20309)
Construct: expressed in transfected cells; cultured in Ham's F-12 medium
Assay: Time-dependent inhibition of M3 activity, Fluo-4 NW calcium fluorescence
Format: cell-based
Settings: peptide 50 μM, 60 minutes (1 hour pre-incubation); read-out: % Inhibition hM3 receptor activity
Peptide text beside a SMILES is read from it. * marks the point of attachment. Palmitoyl = CCCCCCCCCCCCCCCC(=O)*; Myristoyl = CCCCCCCCCCCCCC(=O)*
Decision: inhibition at 50 µM compared against 80%; not below it gives label 1, below it gives label 0.

Recorded results for 4 molecules are shown here.
INSERT INTO results (molecule, assayed_target, classification) VALUES
  ('CCCCCCCCCCCCCCCC(=O)N[C@@H](Cc1c[nH]c2ccccc12)C(=O)N[C@@H](CCSC)C(=O)N[C@@H](CC(N)=O)C(=O)N[C@@H](CC(C)C)C(=O)N[C@@H](CCCCN)C(=O)N[C@H](C(N)=O)[C@@H](C)O [Seq. ID No. 4 Palmitoyl] (Palmitoyl-WMNLKT-NH2)', 'human muscarinic receptor M3 (Homo sapiens, UniProt P20309)', 'label 0'),
  ('CCCCCCCCCCCCCCCC(=O)N[C@@H](Cc1c[nH]c2ccccc12)C(=O)N[C@@H](CCSC)C(=O)N[C@@H](Cc1ccccc1)C(=O)N[C@@H](CC(C)C)C(=O)N[C@@H](CCCCN)C(N)=O [Seq. ID No. 5 Palmitoyl] (Palmitoyl-WMFLK-NH2)', 'human muscarinic receptor M3 (Homo sapiens, UniProt P20309)', 'label 1'),
  ('CCCCCCCCCCCCCCCC(=O)N[C@@H](Cc1c[nH]c2ccccc12)C(=O)N[C@@H](CCSC)C(=O)N[C@@H](CCCNC(=N)N)C(=O)N[C@@H](CC(C)C)C(N)=O [Seq. ID No. 1 Palmitoyl] (Palmitoyl-WMRL-NH2)', 'human muscarinic receptor M3 (Homo sapiens, UniProt P20309)', 'label 0'),
  ('CCCCCCCCCCCCCC(=O)N[C@@H](CCCNC(=N)N)C(=O)N[C@H](C(=O)N[C@@H](CCSC)C(=O)N[C@@H](Cc1ccc(O)cc1)C(=O)N[C@@H](CCCCN)C(=O)N[C@@H](CCSC)C(=O)N[C@@H](CC(N)=O)C(=O)N[C@@H](CCCCN)C(=O)N[C@@H](CCCNC(=N)N)C(=O)N[C@@H](CC(=O)O)C(=O)N[C@@H](Cc1ccc(O)cc1)C(N)=O)C(C)C [Seq. ID No. 7 Myristoyl] (Myristoyl-RVMYKMNKRDY-NH2)', 'human muscarinic receptor M3 (Homo sapiens, UniProt P20309)', 'label 1');

In the following, a different molecule is considered.
Does the molecule CCCCCCCCCCCCCC(=O)N[C@@H](CCCNC(=N)N)C(=O)N[C@@H](CCSC)C(=O)N[C@@H](Cc1ccc(O)cc1)C(=O)N[C@@H](CCCCN)C(=O)N[C@@H](CCSC)C(=O)N[C@@H](CCSC)C(=O)N[C@@H](C)C(=O)NCC(=O)N[C@@H](CCSC)C(=O)N[C@@H](Cc1ccc(O)cc1)C(=O)N[C@@H](CC(C)C)C(=O)N[C@@H](CCCNC(=N)N)C(N)=O [Seq. ID No. 6 Myristoyl] (Myristoyl-RMYKMMAGMYLR-NH2) have recorded inhibition at 50 µM that is 80% or more?
label 0

###

Target: human muscarinic receptor M3 (Homo sapiens, UniProt P20309)
Construct: expressed in transfected cells; cultured in Ham's F-12 medium
Assay: Inhibition of M3-acetylcholine activation, Fluo-4 NW calcium fluorescence
Type: cell-based
Conditions: 50 min; peptide 10 μM, 50 min incubation, 10 nM acetylcholine
Peptide text beside a SMILES is read from it. * marks the point of attachment. Palmitoyl = CCCCCCCCCCCCCCCC(=O)*; Myristoyl = CCCCCCCCCCCCCC(=O)*
quantity: inhibition at 10 µM

Answered cases to consult:
INSERT INTO results (compound, assayed_target, value_reported) VALUES
  ('CCCCCCCCCCCCCCCC(=O)N[C@@H](Cc1c[nH]c2ccccc12)C(=O)N[C@@H](CCSC)C(=O)N[C@@H](CCCNC(=N)N)C(=O)N[C@@H](CC(C)C)C(=O)N[C@@H](CCCCN)C(=O)N[C@@H](C)C(N)=O [Seq. ID No. 3 Palmitoyl] (Palmitoyl-WMRLKA-NH2)', 'human muscarinic receptor M3 (Homo sapiens, UniProt P20309)', '41%'),
  ('CCCCCCCCCCCCCCCC(=O)N[C@@H](Cc1c[nH]c2ccccc12)C(=O)N[C@@H](CCSC)C(=O)N[C@@H](CCCNC(=N)N)C(=O)N[C@@H](CC(C)C)C(N)=O [Seq. ID No. 1 Palmitoyl] (Palmitoyl-WMRL-NH2)', 'human muscarinic receptor M3 (Homo sapiens, UniProt P20309)', '15.4%'),
  ('CCCCCCCCCCCCCCCC(=O)N[C@@H](Cc1c[nH]c2ccccc12)C(=O)N[C@@H](CCSC)C(=O)N[C@@H](Cc1ccccc1)C(=O)N[C@@H](CC(C)C)C(=O)N[C@@H](CCCCN)C(N)=O [Seq. ID No. 5 Palmitoyl] (Palmitoyl-WMFLK-NH2)', 'human muscarinic receptor M3 (Homo sapiens, UniProt P20309)', '0%'),
  ('CCCCCCCCCCCCCCCC(=O)N[C@@H](Cc1c[nH]c2ccccc12)C(=O)N[C@@H](CCSC)C(=O)N[C@@H](CC(N)=O)C(=O)N[C@@H](CC(C)C)C(=O)N[C@@H](CCCCN)C(=O)N[C@H](C(N)=O)[C@@H](C)O [Seq. ID No. 4 Palmitoyl] (Palmitoyl-WMNLKT-NH2)', 'human muscarinic receptor M3 (Homo sapiens, UniProt P20309)', '35.3%'),
  ('CCCCCCCCCCCCCC(=O)N[C@@H](CCCNC(=N)N)C(=O)N[C@H](C(=O)N[C@@H](CCSC)C(=O)N[C@@H](Cc1ccccc1)C(=O)N[C@@H](CCCCN)C(=O)N[C@@H](CCSC)C(=O)N[C@@H](Cc1ccccc1)C(=O)N[C@@H](CCCCN)C(=O)N[C@@H](CCCNC(=N)N)C(=O)N[C@@H](CC(=O)O)C(=O)N[C@@H](Cc1ccc(O)cc1)C(N)=O)C(C)C [Seq. ID No. 8 Myristoyl] (Myristoyl-RVMFKMFKRDY-NH2)', 'human muscarinic receptor M3 (Homo sapiens, UniProt P20309)', '42.5%');

Could you tell me which inhibition at 10 µM is on file for CCCCCCCCCCCCCC(=O)N[C@@H](CCCNC(=N)N)C(=O)N[C@@H](CCSC)C(=O)N[C@@H](Cc1ccc(O)cc1)C(=O)N[C@@H](CCCCN)C(=O)N[C@@H](CCSC)C(=O)N[C@@H](CCSC)C(=O)N[C@@H](C)C(=O)NCC(=O)N[C@@H](CCSC)C(=O)N[C@@H](Cc1ccc(O)cc1)C(=O)N[C@@H](CC(C)C)C(=O)N[C@@H](CCCNC(=N)N)C(N)=O [Seq. ID No. 6 Myristoyl] (Myristoyl-RMYKMMAGMYLR-NH2) ?
14.8%

Could you tell me which inhibition at 10 µM is on file for CCCCCCCCCCCCCCCC(=O)N[C@@H](Cc1c[nH]c2ccccc12)C(=O)N[C@@H](CCSC)C(=O)N[C@@H](CCCNC(=N)N)C(=O)N[C@@H](CC(C)C)C(=O)N[C@@H](CCCCN)C(N)=O [Seq. ID No. 2 Palmitoyl, Palm-WMRLK-NH2] (Palmitoyl-WMRLK-NH2) ?
62.5%

Could you tell me which inhibition at 10 µM is on file for CCCCCCCCCCCCCC(=O)N[C@@H](CCCNC(=N)N)C(=O)N[C@H](C(=O)N[C@@H](CCSC)C(=O)N[C@@H](Cc1ccc(O)cc1)C(=O)N[C@@H](CCCCN)C(=O)N[C@@H](CCSC)C(=O)N[C@@H](CC(N)=O)C(=O)N[C@@H](CCCCN)C(=O)N[C@@H](CCCNC(=N)N)C(=O)N[C@@H](CC(=O)O)C(=O)N[C@@H](Cc1ccc(O)cc1)C(N)=O)C(C)C [Seq. ID No. 7 Myristoyl] (Myristoyl-RVMYKMNKRDY-NH2) ?
15.9%
